Consider the following compounds; for each one, report its photoluminescence quantum yield.
assay: photoluminescence quantum yield (fraction); solvent given as SMILES; details: in CS(C)=O
Please reply with the number alone, leaving off any unit.

Given the compound CCN(CC)c1ccc2cc(/C(Cl)=C/C=C/C(=C(C#N)C#N)c3ccc(N(c4ccccc4)c4ccccc4)cc3)c(=O)oc2c1 , write its reported photoluminescence quantum yield.
0.003

Specify reported photoluminescence quantum yield for the compound shown: CC(C)(C)NS(=O)(=O)c1ccc2c(c1)C(=O)/C(=C1\Sc3ccc(S(=O)(=O)NC(C)(C)C)cc3C1=O)S2
0.009

Kindly indicate its recorded photoluminescence quantum yield. Item: Cc1ccc2oc(-c3cc4cc(C)ccc4oc3=O)cc2c1
0.83

Please look at this compound and report its photoluminescence quantum yield: CCCN1/C(=C/C=C(/C=C/C2=[N+](CCC)c3ccccc3C2(C)C)c2cc[n+](C)cc2)C(C)(C)c2ccccc21
0.12

Tell me photoluminescence quantum yield reported for Cn1ccc(-c2nc3ccccc3nc2/C=C/N2CCCC2)c1
0.325

Specify measured photoluminescence quantum yield for COC(=O)c1cc(=O)n(C)c2cc(-c3cc4c5c(c3)CCCN5CCC4)sc12 .
0.17

Supply measured photoluminescence quantum yield of COc1cc2c(cc1-c1ccccc1)Cc1c3c(c4c(c1-2)-c1cc(OC)c(-c2ccccc2)cc1C4)C(=O)N(CCC(C)C)C3=O in your reply.
0.47

Determine from records and report photoluminescence quantum yield for CN(C)c1ccc2cc(C3=[O+][B-](F)(F)OC(c4ccc(C#N)cc4)=C3)ccc2c1
0.007

Specify photoluminescence quantum yield for CN(C)c1cc(C#N)c(N(C)C)c(C#N)c1 and stop.
0.55

State its photoluminescence quantum yield for this compound: CCCCCCCCN1c2ccc(C#Cc3cc(C(F)(F)F)cc(C(F)(F)F)c3)cc2Sc2cc(C=O)ccc21
0.77

Answer with the recorded photoluminescence quantum yield of CCC1=C(C)C(=O)n2c1cc1c(C)c(CC(=O)OC)c(C)n1c2=O only.
1

Indicate the recorded photoluminescence quantum yield value for this compound: Cn1c(=O)c(/N=N/c2ccc(Nc3ccccc3)c(S(=O)(=O)O)c2)c(O)c2ccccc21
0.04

State its photoluminescence quantum yield for this compound: COc1ccc(-c2csc(/C(C#N)=C/c3ccncc3)n2)cc1
0.038

Supply measured photoluminescence quantum yield of CN(C)c1ccc(/C=C/c2ccccn2)cc1 in your reply.
0.054

Identify measured photoluminescence quantum yield associated with Cn1c(/C=C/c2ccc(/C=C/c3nc4ccccc4[nH]3)cc2)[n+](C)c2ccccc21
0.114

Kindly indicate its recorded photoluminescence quantum yield. Item: Cn1c(=O)c(/N=N/c2ccc(S(=O)(=O)O)c3ccccc23)c(O)c2ccccc21
0.02

State its photoluminescence quantum yield: Cc1cccc2cc(-c3cc4cccc(C)c4oc3=O)oc12
0.88

Note down photoluminescence quantum yield recorded for COc1ccc(C2=CC(c3ccc4cc(N(C)C)ccc4c3)=[O+][B-](F)(F)O2)cc1
0.007

Retrieve photoluminescence quantum yield measured for COc1ccc(C#Cc2ccc(C#N)cc2)cc1OC and print it.
0.21

Supply reported photoluminescence quantum yield belonging to this compound: CC1(C)C(/C=C/C=C/c2cc3ccc(O)cc3oc2=O)=[N+](CCCS(=O)(=O)[O-])c2ccc(S(=O)(=O)O)cc21
0.017

Return value of photoluminescence quantum yield for input CCCCCCCCN1c2ccc(C#Cc3ccc(F)cc3)cc2Sc2cc(C=O)ccc21 , no commentary.
0.75

Let me know recorded photoluminescence quantum yield for CCCCCCCCC1(CCCCCCCC)c2cc(-c3ccc([N+](=O)[O-])cc3)ccc2-c2ccc(-c3ccc([N+](=O)[O-])cc3)cc21 , thanks.
0.28

Give reported photoluminescence quantum yield value for C[N+]1=C(/C=C/C=C2/N(CCCc3ccccc3)c3ccccc3C2(C)C)C(C)(C)c2ccccc21
0.08

Give the measured photoluminescence quantum yield for Fc1ccc2sc3nc(-c4ccccc4)sc3c2c1
0.91

Tell me its photoluminescence quantum yield given CCCCOc1ccc(-c2cc3c(o2)c(-c2ccc(OCCCC)cc2)c2n3[B-](F)(F)[N+]3=Cc4c(-c5ccc(OCCCC)cc5)c5oc(-c6ccc(OCCCC)cc6)cc5n4[B-](F)(F)[N+]3=C2)cc1 as the entry.
0.3

State its photoluminescence quantum yield: COc1ccc(-n2c3ccccc3c3cc(C=C(C#N)C#N)ccc32)cc1
0.01

// fetch photoluminescence quantum yield given entry CCOC(=O)CN(CC(=O)OCC)c1ccc(-c2cc(-c3ccccn3)nc(-c3ccccn3)c2)cc1
0.34

Give photoluminescence quantum yield for CCN(CC)c1ccc2cc(/C=C/C(=O)/C=C(O)/C=C/c3cc4ccc(N(CC)CC)cc4oc3=O)c(=O)oc2c1
0.05

Let me know recorded photoluminescence quantum yield for CN(C)c1c2ccccc2cc2ccccc12 , thanks.
0.018

Give the measured photoluminescence quantum yield for CN(C)c1ccc2nc(-c3ccc(C(=O)OC(C)(C)C)cc3)sc2c1
0.91

Note photoluminescence quantum yield for the compound shown: COc1ccc(OC)c(C=O)c1
0.04
